Data origin, for the record: PubChem BioAssay (EPA / NIEHS)

Target: human Histamine 1 Receptor (H1), HRH1 (gene 3269)
Test: NVS_GPCR_hH1: NovaScreen (NVS) G Protein-Coupled Receptor Assay for human Histamine 1 Receptor (H1) (AID 2283268)
Protocol: NVS_GPCR_hH1 is a biochemical, single-readout assay that uses extracted gene-proteins in a cell-free assay. Measurements were taken 1 hour after chemical dosing in a 96-well plate.NVS_GPCR_hH1 is one of one assay component(s) measured or calculated from the NVS_GPCR_hH1 assay. […] This assay endpoint, NVS_GPCR_hH1, was analyzed in the positive analysis fitting direction relative to DMSO as the negative control and baseline of activity. […]
Inconclusive results are not listed. Activity calls are given as the source filed them. How the source made its calls: active means hit-call score of the fitted dose curve at least 0.9, where 1 is the maximum; inconclusive means response in the unintended direction; inactive means score below 0.9.
reportedEndpoint: AC50

compound="CCOC(=O)c1ccc(C2CCC(NC[C@H](O)COc3ccc(O)c(NS(C)(=O)=O)c3)CC2)cc1 (stereo not given in full)" reportedendpoint=AC50 testresult="18.6 µM (active)"
compound=CCOc1cccc(-n2cc(C(=O)N3CCN(c4cc(C(=O)O)c5ccccc5c4)CC3)nc2-c2ccc(C)cc2)c1 reportedendpoint=AC50 testresult="23.8 µM (active)"
compound=COc1cccc(-c2ccc(/C=C\CN3CCCCCC3)cc2Cl)c1 reportedendpoint=AC50 testresult="11.1 µM (active)"

Hey, can you go through the list below and give me AC50 for every item?
1. Cn1c(=O)cc(Oc2ccc(F)cc2F)c2cnc(NCC(C)(C)O)nc21
2. CCCN(C1CCN(C(=O)C2CCNCC2)CC1)[C@@H]1CCc2ccc(OC)cc2C1

[reply]
1: 6.95 µM (active); 2: 12.1 µM (active)
